Test: In vivo pharmacokinetic experiment: oral rivaroxaban in rats with or without ticagrelor pre-treatment (plasma, UPLC-MS/MS)
Parameters: species or system Sprague-Dawley rats
Settings: male, Sprague-Dawley, rat, plasma, po, 10 mg/kg, rivaroxaban 10 mg/kg oral, rats, control group (no ticagrelor)
property_label: half-life

Quick one: half-life of O=C(NC[C@H]1CN(c2ccc(N3CCOCC3=O)cc2)C(=O)O1)c1ccc(Cl)s1 ?
2.64 h

---

Test: In vivo pharmacokinetic experiment: oral rivaroxaban in rats with or without ticagrelor pre-treatment (plasma, UPLC-MS/MS)
Design: species or system Sprague-Dawley rats
Conditions: male, Sprague-Dawley, rat, plasma, po, 10 mg/kg, rivaroxaban 10 mg/kg oral, rats pre-treated with ticagrelor 10 mg/kg/day for 14 days; read-out: MRT(0–t)
property_label: MRT last (h)
Give the number; h is assumed, so skip it.

Quick one: MRT last of O=C(NC[C@H]1CN(c2ccc(N3CCOCC3=O)cc2)C(=O)O1)c1ccc(Cl)s1 ?
5.18

---

Experiment: In vivo pharmacokinetic experiment: oral rivaroxaban in rats with or without ticagrelor pre-treatment (plasma, UPLC-MS/MS)
Parameters: species or system Sprague-Dawley rats
Settings: male, Sprague-Dawley, rat, plasma, po, 10 mg/kg, rivaroxaban 10 mg/kg oral, rats pre-treated with ticagrelor 10 mg/kg/day for 14 days; read-out: MRT (0–∞)
property_label: MRT inf (h)
Give the number; h is assumed, so skip it.

Quick one: MRT inf of O=C(NC[C@H]1CN(c2ccc(N3CCOCC3=O)cc2)C(=O)O1)c1ccc(Cl)s1 ?
5.97

---

Experiment: In vivo pharmacokinetic experiment: oral rivaroxaban in rats with or without ticagrelor pre-treatment (plasma, UPLC-MS/MS)
Design: species or system Sprague-Dawley rats
Details: male, Sprague-Dawley, rat, plasma, po, 10 mg/kg, rivaroxaban 10 mg/kg oral single dose, rats, control group (vehicle, no ticagrelor), n=5, mean ± SD
property_label: AUC(0-t) (ng·h/mL)
Give the number; ng·h/mL is assumed, so skip it.

Quick one: AUC(0-t) of O=C(NC[C@H]1CN(c2ccc(N3CCOCC3=O)cc2)C(=O)O1)c1ccc(Cl)s1 [Rivaroxaban] ?
1060

---

Experiment: In vivo pharmacokinetic experiment: oral rivaroxaban in rats with or without ticagrelor pre-treatment (plasma, UPLC-MS/MS)
Set-up: species or system Sprague-Dawley rats
Details: male, Sprague-Dawley, rat, plasma; rivaroxaban 10 mg/kg oral, rats, control group (no ticagrelor); read-out: CL (text: intrinsic clearance) (converted)
property_label: CLint scaled (mL/min/kg)
Give the number; mL/min/kg is assumed, so skip it.

Quick one: CLint scaled of O=C(NC[C@H]1CN(c2ccc(N3CCOCC3=O)cc2)C(=O)O1)c1ccc(Cl)s1 ?
166

---

Assay: In vivo pharmacokinetic experiment: oral rivaroxaban in rats with or without ticagrelor pre-treatment (plasma, UPLC-MS/MS)
Parameters: species or system Sprague-Dawley rats
Settings: male, Sprague-Dawley, rat, plasma, po, 10 mg/kg, rivaroxaban 10 mg/kg oral, rats, control group (no ticagrelor)
property_label: Cmax
Don't forget the unit after the value.

Quick one: Cmax of O=C(NC[C@H]1CN(c2ccc(N3CCOCC3=O)cc2)C(=O)O1)c1ccc(Cl)s1 ?
221 ng/mL

---

Assay: In vivo pharmacokinetic experiment: oral rivaroxaban in rats with or without ticagrelor pre-treatment (plasma, UPLC-MS/MS)
Design: species or system Sprague-Dawley rats
Settings: male, Sprague-Dawley, rat, plasma, po, 10 mg/kg, rivaroxaban 10 mg/kg oral, rats pre-treated with ticagrelor 10 mg/kg/day for 14 days
property_label: half-life (h)
Give the number; h is assumed, so skip it.

Quick one: half-life of O=C(NC[C@H]1CN(c2ccc(N3CCOCC3=O)cc2)C(=O)O1)c1ccc(Cl)s1 [Rivaroxaban] ?
5.12
